The following compounds are shown together with reported microsomal CLint values.
Test: Metabolic stability in liver microsomes, Method II, human
Type: in vitro ADME
Settings: 1 μM test compound, NADPH + UDPGA
Counter-ions that a name gives are not always drawn.

These solved cases illustrate the format of a correct answer.
>>> data_value("C[C@H](Nc1nccc(N2C(=O)OC[C@@H]2CF)n1)c1cn(-c2ccc(F)cc2)cn1 [471 as TFA salt]")
"< 7.7 µL/min/mg"
>>> data_value("C[C@H](Nc1nccc(N2C(=O)OC[C@@H]2CF)n1)c1cn(-c2ccc(F)c(F)c2)cn1 [474 as TFA salt]")
"< 7.7 µL/min/mg"

Prompt line: Fill in: microsomal CLint of C[C@H](Nc1ncc(F)c(N2C(=O)OC[C@@H]2CF)n1)c1cn(-c2ccc(F)c(Cl)c2)cn1 [472 as TFA salt] is ___
Response line: < 7.7 µL/min/mg

###

Experiment: Metabolic stability in liver microsomes, Method I, mouse
Format: in vitro ADME
Conditions: male, CD-1, 1 μM test compound
experimental.readout: microsomal CLint at 1 μM (µL/min/mg)

>>> data_value("C[C@H](Nc1nccc(N2C(=O)OC[C@@H]2[C@@H](C)O)n1)c1ccc(-c2ccnc(C(F)(F)F)c2)cn1")
63.1
>>> data_value("CC(Nc1nccc(N2C(=O)OC[C@@H]2[C@@H](C)O)n1)c1nc(-c2ccc(C(F)(F)F)cc2)no1 (single isomer, unassigned)")
56.3
>>> data_value("C[C@H](Nc1nccc(N2C(=O)OC[C@@H]2CF)n1)c1cn(-c2ccc(Cl)cc2)cn1")
18.7

###

Experiment: Metabolic stability in liver microsomes, Method I, human
Type: in vitro ADME
Conditions: pooled liver microsomes, 1 μM test compound
experimental.readout: microsomal CLint at 1 μM (µL/min/mg)

>>> data_value("C[C@H](Nc1nccc(N2C(=O)OC[C@@H]2[C@H](C)F)n1)c1ncc(-c2ccnc(C(F)(F)F)c2)cc1F")
28.3
>>> data_value("C[C@H](Nc1ncc(F)c(N2C(=O)OC[C@@H]2CF)n1)c1ncc(-c2ccc(Cl)cc2)o1")
35.6
